- Test: yeast display, Sf9 membrane polyspecificity reagent, FACS + sequencing; frameworks hold sequencing errors
Observable: polyreactivity (PSR sort gate)

Below, 4 sequences whose answers are already recorded.
[[record]]
seq = "QVQLQESGGGLVQAGGSLRLSCAASGNIVDADIMGWYRQAPGKERELVASITDGGSTNYADSVKGRFTISRDNAKNTVYLQMNSLKPVDTAVYNCAAIAYPDIPTYFDYDSEYFYWGQGTQVTVSS"
result = "low polyreactivity"

[[record]]
seq = "QVQLVESGGGLVQAGGSLRLICAASGRTFYSYAMAWYRQAPGQERELVAAISSGGTTYYADSVKGRFTISRDNAKNTVYLQMNSLKPEDTAVYYCATSRAWRYRSYYWGQGTQVTVSS"
result = "high polyreactivity"

[[record]]
seq = "QVQLVESGGGLVQAGGSLRLSCAASGSIFPLNDMGWYRQAPGKERELVAAITIGGSTYYADSVKGRFTISRDNAKNTVYLQMNSLKPEDTAVYYCAKVGELSYRYDYWGQGTQVTVSS"
result = "high polyreactivity"

[[record]]
seq = "QVQLVESGGGLVQAGGSLRLSCAASGFTFTYYAMGWYRQAPGKERELVAAISWSSDSTYYADSVKGRFTISRDNAKNTVYLQMNSLKPEDTAVYYWAARPGSKNVEYYYWGQGTQVTVSS"
result = "low polyreactivity"


Here is another sequence to look at.
Per the record, QVQLVESGGGLVQAGGSLSLSCAASVSTSLSYDMGWYRQAPGKERELVASITSSGGSTYYADSVKGRFTIARDNAKNTVYLQMKSLKPEDTAVYYCNARSYIYPFSPTSYYRYYWGQGTQVTVSS has polyreactivity (PSR sort gate) of high polyreactivity

====

- Test: yeast display, Sf9 membrane polyspecificity reagent, FACS + sequencing; frameworks hold sequencing errors
Observable: polyreactivity (PSR sort gate)

[[record]]
seq = "QVQLVESGGGLVQAGGSLRVSCDASGFTFFYNAMGRYRQAHGKERELVASISSVGRTNYADSVKGRFRISRDNAKNTVYLQMNSLTPEDTAVYFCAAYRAPATRRRGYYYWGLGTQVTVSS"
result = "high polyreactivity"

[[record]]
seq = "QVQHVESGGGLVQAGGSLRLSCAASGRIMARNAMGWYRQAPGKERELVADISYSGGRTYYADSVKGRFTISRDNSKNTVYFQMNRLKQEDTAVYYCADSRSSRTYHDDYWGQGTQVTVSS"
result = "high polyreactivity"


====

- Test: yeast display, Sf9 membrane polyspecificity reagent, FACS + sequencing; frameworks hold sequencing errors
Observable: polyreactivity (PSR sort gate)

Below, 6 sequences whose answers are already recorded.
[[record]]
seq = "QVQLVESGGGLVQAGGSLRLSCAASGLTFPIYAMGWYRQAPGKEREYVAVITTSGGSTYYADSVKGRFTISRDNAKNTVYLQMNSLKPEDTAVYYCNARGIRHYYWGQGTQVTVSS"
result = "high polyreactivity"

[[record]]
seq = "QVQLVESGGGLVQAGGSLRLSCAASGFTFAGNAMGWYRQAPGKERELVAGISRRGGNTYYADSVKGRFTISRDNAKNTVYLQMISLKPEDTAVYYCAARARRRYYYWGQGTQVTVSS"
result = "high polyreactivity"

[[record]]
seq = "QVQRVESGGGLVQAGGSLRLSCAASGRIFSANAMGWYRQAPGKERELVATISTGGGRTYYADSVKGRFTISRDNAKNTVYLQMNSLKPEDTAVYYCNATRNYARVRYYYWGQGTQVTVSS"
result = "high polyreactivity"

[[record]]
seq = "EEELVESGGGLVQAGGSLRLSCAASGSTFLVYAMGWYRQAPGKERELVAVITYSTVRTYYADSVKGRFTISRDNAKNTVYLQMNSLKPEDTAVYYCNADKEYAVLGQGMDYWGQGTQVSVSS"
result = "low polyreactivity"

[[record]]
seq = "QVQLVESGVGLVQAGGSLRLSCAASGLIFYRYAMGWNRQAPGKERELVAAISWSGGTTYYADSVKGRFTISRDNAKNTVYLQMNSLKPEDTAVYYCAATRLRTEYYWGQGTQVTVSS"
result = "high polyreactivity"

[[record]]
seq = "QLQLVESGGGLVQAGGSLRLSCAASGRTFYVNAMGWYRQAHGKERELVARISSSGITYYAVSVKGRFTISRDNAKNTVYLQMNSLKPEDTAVYYCAAGPWFYYWGQGTQVTVSS"
result = "low polyreactivity"


Per the record, QVQLVESGGGLVQAGGSLSLSCAASGSTFDYYAMGWYRQAPGKEWELVADITYSGGSTYYADSVKGRFTISRDNAKNTVYLQMNSLKPEDTAVYYCNAYYTVYTRYDYWGQGTQVTVSS has polyreactivity (PSR sort gate) of high polyreactivity

Per the record, QVQLVESGGGLVQAGGSLRLSCDASGIIIRWYAMGWYRQAPGKERELVAAITSSGGRTYYADSVKGRFTISRDNAKNTVYLQMNSLKPEDTAVYYCAAQRYSHLYRGRFAYRYYYWGQGTQVTVSS has polyreactivity (PSR sort gate) of high polyreactivity
